Origin of the recorded values: the supplement of paper PMC10065799

target: Grb2 SH2 (UniProt P62993); assay: SH2 binding enrichment of the phosphorylated peptide, bacterial display (enrichment ratio); higher = better substrate or ligand; peptides without Tyr show the background
OUTCOME MEASURE: SH2 binding enrichment

ANNEYYFQVCA: 0.61

A = KLFFHYNPKLC [INSR_Y457]
B = DGYTDYAEFAK [MCFD2_Y138_I136T]
Ask | Returns: the argument ( A or B ) having the larger SH2 binding enrichment. Write down the label attached to your selection.
Reply | A
(A: 1.12, B: 0.651)

----------
biological target: Fyn (UniProt P06241); test: phosphorylation enrichment, bacterial display (enrichment ratio); higher = better substrate or ligand; peptides without Tyr show the background
Sequence (P06241 whole entry, looked up): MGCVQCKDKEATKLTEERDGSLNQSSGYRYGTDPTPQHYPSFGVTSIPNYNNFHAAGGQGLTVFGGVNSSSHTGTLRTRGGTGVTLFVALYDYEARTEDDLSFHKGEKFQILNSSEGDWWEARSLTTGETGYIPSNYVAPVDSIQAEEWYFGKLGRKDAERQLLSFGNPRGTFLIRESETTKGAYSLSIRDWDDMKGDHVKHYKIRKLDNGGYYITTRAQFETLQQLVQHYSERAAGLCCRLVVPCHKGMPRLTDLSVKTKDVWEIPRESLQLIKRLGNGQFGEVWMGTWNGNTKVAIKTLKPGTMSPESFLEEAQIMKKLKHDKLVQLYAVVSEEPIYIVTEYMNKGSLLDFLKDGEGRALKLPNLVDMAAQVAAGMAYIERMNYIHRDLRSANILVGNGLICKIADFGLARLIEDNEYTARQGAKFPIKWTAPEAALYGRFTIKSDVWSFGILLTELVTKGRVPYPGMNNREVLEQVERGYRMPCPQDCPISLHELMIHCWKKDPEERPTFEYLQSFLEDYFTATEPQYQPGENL
OUTCOME MEASURE: phosphorylation enrichment
No unit in the answer, please; the number alone is enough.

The cases that follow already have their phosphorylation enrichment on record.
CTTIHSNYMCN [TP53_Y234_Y234S]: 0.478
QHVPDYRQNGY [PCDHGA1_Y890_V894G]: 0.523
TLNVRHESVQA [CEACAM7_Y236_Y236H]: 0.378
MSSHHYDFKKF [ZNF445_Y428_YF]: 0.384
LEKISYVYMKR [SSX7_Y48]: 1.21

Lab book: phosphorylation enrichment of NFDLDYDSVQP [MYC_Y16_YF] noted as 0.572

According to the records, this sequence ADFFDYGRGLS [KHDRBS3_Y304_H306R_YF] displays phosphorylation enrichment of 0.518

----------
molecular target: SHP2-C SH2; test: SH2 binding enrichment of the phosphorylated peptide, bacterial display (enrichment ratio); higher = better substrate or ligand; peptides without Tyr show the background
OUTCOME MEASURE: SH2 binding enrichment

Observe how each entry below is paired with its result.
VIERSYTSADG [DHCR7_Y382_C380R]: 0.564
RGNMFYENSFA [EGFR_Y113_YF]: 1.26
SARFRYLMAEK [LDHB_Y173]: 0.508
YEREQYADRAR [RBM4_Y355]: 0.727

P = PFADPYFDFEI [ZC3H18_Y371_YF]
Q = HFGCVYFGTLL [MET_Y1093_H1094Y_YF]
Ask | Which value of SH2 binding enrichment is greater, the one for P or the one for Q ? To answer, give the label that identifies your chosen option.
Reply | P

----------
# key: entry, value: phosphorylation enrichment
target: Fes (UniProt P07332); experiment: phosphorylation enrichment, bacterial display (enrichment ratio); higher = better substrate or ligand; peptides without Tyr show the background
Sequence (P07332 whole entry, looked up): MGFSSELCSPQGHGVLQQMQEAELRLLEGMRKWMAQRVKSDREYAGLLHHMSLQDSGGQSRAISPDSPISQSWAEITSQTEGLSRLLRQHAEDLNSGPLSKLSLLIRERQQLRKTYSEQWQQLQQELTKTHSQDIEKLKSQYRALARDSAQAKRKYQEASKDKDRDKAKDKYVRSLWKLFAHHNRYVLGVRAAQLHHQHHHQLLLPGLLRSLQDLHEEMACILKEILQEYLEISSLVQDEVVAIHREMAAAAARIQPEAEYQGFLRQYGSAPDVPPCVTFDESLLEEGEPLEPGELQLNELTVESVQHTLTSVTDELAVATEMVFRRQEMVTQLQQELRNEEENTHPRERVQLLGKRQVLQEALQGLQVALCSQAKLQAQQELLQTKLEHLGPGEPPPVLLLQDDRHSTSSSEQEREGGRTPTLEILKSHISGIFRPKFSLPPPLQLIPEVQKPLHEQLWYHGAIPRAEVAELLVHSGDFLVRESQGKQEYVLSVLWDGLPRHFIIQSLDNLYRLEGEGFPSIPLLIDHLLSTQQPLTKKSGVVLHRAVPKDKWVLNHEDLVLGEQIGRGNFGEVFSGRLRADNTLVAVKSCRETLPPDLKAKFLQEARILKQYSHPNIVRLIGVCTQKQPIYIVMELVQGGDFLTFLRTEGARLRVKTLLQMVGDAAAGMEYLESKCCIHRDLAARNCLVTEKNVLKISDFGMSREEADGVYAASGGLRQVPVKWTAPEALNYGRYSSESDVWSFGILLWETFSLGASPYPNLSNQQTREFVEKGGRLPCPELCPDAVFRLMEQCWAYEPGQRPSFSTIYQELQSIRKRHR
Could you respond with only the numeric value?

Sample records with phosphorylation enrichment:
DLFRLYICVKE [ARID1B_Y1091_V1092I]: 1.61
FTGDIYSSSNL [LZTR1_Y141_N143S_YF]: 0.652
SADIAYNYRHG [PAH_Y166_F161S]: 0.498
HEGKIYEYNQV [ZNF665_Y162]: 1.56
MRTMGYMPREM [CABP5_Y62_T65R]: 0.594

Recorded phosphorylation enrichment (sequence DPHKIYEFVNS [IRF3_Y107] ): 7.43

The recorded phosphorylation enrichment for GREFIYVDPMQ [PDGFRA_Y574_H570R_YF] is 0.729

Quick note, phosphorylation enrichment for KVKGEYDMTVP [AHNAK_Y964] landed at 0.744

phosphorylation enrichment in this record for YSTDCYRVGGH [NTRK2_Y707_Y706C] : 0.827

Quick note, phosphorylation enrichment for KTGNIYRTEFG [MRPL3_Y265_M261T_YF] landed at 0.542

// recorded phosphorylation enrichment for RFVTRSIFNRE [HLA-DQB1_Y62_Y62S_YF] : 0.827

Lab book: phosphorylation enrichment of MSRYIYSTDYY [NTRK1_Y676_D674Y] noted as 1.41

# sequence ITRDIYETDFF [INSR_Y1185_M1180I_YF] ; its phosphorylation enrichment = 1.25

In plain terms, VFFGSYSRPFG [NKAP_Y104_YF] has a documented phosphorylation enrichment of 0.974

Value of measured phosphorylation enrichment for the entry MRALIYNSSTA [PLEKHA7_Y243] : 0.772

Briefly, phosphorylation enrichment measured for PEAALYGRFTI [FYN_Y440] : 1.11

According to the records, this sequence AAGGRYYGLVG [HARS1_Y363_D364Y] displays phosphorylation enrichment of 0.601

phosphorylation enrichment in this record for YEREQYADRAR [RBM4_Y355] : 0.707

The recorded phosphorylation enrichment for QDIMAYRGREV [BCL6_Y157] is 1.04

So, LYSDHYSPSGR [TMPRSS12_Y23] ? Its phosphorylation enrichment was 1.03
